Test: Tmax in Wistar rat at 50 mg/kg, po administered as single dose measured after 1 to 24 hrs by reverse-phase HPLC method
Format: ADME, organism-based
Conditions: in vivo
Measured Attribute: Tmax

Query string: Bench note: what Tmax did O=C(COCC(=O)Nc1ccc(Cl)cc1C(=O)O)Nc1cccc(-c2ccoc2)c1 show?
Result string: 1 h

Query string: Now try O=C(COCC(=O)Nc1ccc(Cl)cc1C(=O)O)Nc1cccc(-c2ccsc2)c1 .
Result string: 2 h

Query string: Try this molecule too: CC(=O)Nc1ccc(-c2ccc(C)c(NC(=O)COCC(=O)Nc3ccc(Cl)cc3C(=O)O)c2)cc1
Result string: 2 h

Query string: Then what about the molecule O=C(COCC(=O)Nc1ccc(Cl)cc1C(=O)[O-])Nc1cccc(-c2ccccn2)c1.[Na+] ?
Result string: 1 h
